src = paper PMC11897524

# tested-target: NTRK1 (Homo sapiens, UniProt P04629)
# Sequence (P04629 33-796): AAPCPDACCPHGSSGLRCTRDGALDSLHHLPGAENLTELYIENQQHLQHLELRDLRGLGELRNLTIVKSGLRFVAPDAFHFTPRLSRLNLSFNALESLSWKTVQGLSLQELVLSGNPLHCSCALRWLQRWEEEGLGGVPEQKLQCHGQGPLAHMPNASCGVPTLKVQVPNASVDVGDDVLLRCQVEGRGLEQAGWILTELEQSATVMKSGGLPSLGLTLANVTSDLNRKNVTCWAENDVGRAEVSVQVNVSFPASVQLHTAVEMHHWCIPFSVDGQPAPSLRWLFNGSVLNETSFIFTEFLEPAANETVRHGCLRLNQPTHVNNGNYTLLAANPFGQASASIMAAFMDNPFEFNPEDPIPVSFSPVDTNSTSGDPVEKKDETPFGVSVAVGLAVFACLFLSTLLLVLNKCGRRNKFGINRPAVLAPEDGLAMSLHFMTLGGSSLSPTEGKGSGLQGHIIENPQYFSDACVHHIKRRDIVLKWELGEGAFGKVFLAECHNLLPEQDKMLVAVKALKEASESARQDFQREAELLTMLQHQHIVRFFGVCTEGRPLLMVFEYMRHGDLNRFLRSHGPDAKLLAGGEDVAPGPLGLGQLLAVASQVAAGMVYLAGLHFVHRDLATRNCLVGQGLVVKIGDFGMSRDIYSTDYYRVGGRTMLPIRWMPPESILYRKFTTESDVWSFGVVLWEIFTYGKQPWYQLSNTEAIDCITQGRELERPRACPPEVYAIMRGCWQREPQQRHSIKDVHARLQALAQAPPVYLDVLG
pIC50: −log10 of the molar value.
observed-property: pIC50

Qu. Under NTRK1 (Homo sapiens, UniProt P04629): pIC50 value of CCS(=O)(=O)Cc1cnc(Oc2c(F)cc(F)cc2OCCCCOc2ccc(/C=C/c3cc(OC)cc(OC)c3)cc2)c(-c2cc(C)c3c(=O)[nH]ccn23)c1 ?
Ans. < 5.00

----------
# tested-target: BRD4 (Homo sapiens, UniProt O60885)
# method: AlphaScreen BRD4 binding inhibition assay
# Parameters: purchased Abcam
Hi! Could you tag entries with IC50 below 7 nM as condition met, and those at or above as condition not met? Much appreciated.

- CCS(=O)(=O)Cc1cnc(Oc2c(F)cc(F)cc2OCC2CCC(COc3ccc(C=Cc4cc(OC)cc(OC)c4)cc3)N2)c(-c2cc(C)c3c(=O)[nH]ccn23)c1 (centres unmarked): condition not met
- CCS(=O)(=O)Cc1cnc(Oc2c(F)cc(F)cc2OCCCCOc2ccc(/C=C/c3cc(OC)cc(OC)c3)cc2)c(-c2cc(C)c3c(=O)[nH]ccn23)c1: condition met
- CCS(=O)(=O)Cc1cnc(Oc2c(F)cc(F)cc2OCc2nc(COc3ccc(/C=C/c4cc(OC)cc(OC)c4)cc3)c[nH]2)c(-c2cc(C)c3c(=O)[nH]ccn23)c1: condition not met

Qu. I wonder whether CCS(=O)(=O)Cc1cnc(Oc2c(F)cc(F)cc2O/C=C\CC(=O)COc2ccc(/C=C/c3cc(OC)cc(OC)c3)cc2)c(-c2cc(C)c3c(=O)[nH]ccn23)c1 has IC50 below 7 nM. Can you tell?
Ans. condition met
